- assay-system: T1, purified human monomeric 4-1BB (human, UniProt Q07011 24-186)
- T1 construct: the assay used the 4-1BB part released by Factor Xa with the Fc removed; also called h4-1BB; human 4-1BB
- T1 sequence (Q07011 other isoform, or with tags, fused parts or gaps limits assumed): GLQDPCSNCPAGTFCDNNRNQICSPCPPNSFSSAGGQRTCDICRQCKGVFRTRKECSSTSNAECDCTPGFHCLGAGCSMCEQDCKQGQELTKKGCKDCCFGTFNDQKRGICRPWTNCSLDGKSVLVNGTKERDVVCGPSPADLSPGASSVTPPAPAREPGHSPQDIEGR
- protocol-notes: SPR, mean n=3;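 also: antibodies captured on anti-human Fc chip, 4-1BB injected as five-point two-fold series from 40 nM by single-cycle kinetics at 25 °C, sensorgrams fitted to 1:1 Langmuir model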
Reported Kd is given for each of the following binders.
readout-name: Kd

binder	data-value
v28683 (antibody, human IgG1, kappa, L234A L235A, V domains shown, also called humanized 1G1 H1L1) VH: EVQLVESGGGLVQPGGSLRLSCAASGFTFSEFGMHWVRQAPGKGLEWVSYISSGGSTIYYADSVKGRFTISRDNAKNSLYLQMNSLRAEDTAVYYCARDWVDYWGQGTLVTVSS VL: EIVLTQSPATLSLSPGERATLSCKASENVGSYVSWYQQKPGQAPRLLIYGASNRYTGIPARFSGSGSGTDFTLTISSLEPEDFAVYYCGQSYSYPLTFGGGTKVEIKR	42.3 nM
v28696 (antibody, human IgG1, kappa, L234A L235A, V domains shown, also called humanized 5G8 H1L2) VH: QVQLQESGPGLVKPSETLSLTCTVSGFSLISYGVHWIRQPPGKGLEWIGVIWSGGSTDYNPSLKSRVTISVDTSKNQFSLKLSSVTAADTAVYYCARNPLTATVMDYWGQGTLVTVSS VL: DIQMTQSPSSLSASVGDRVTITCRASQNVGTNVAWYQQKPGKAPKALIYSASYRDSGVPSRFSGSGSGTDFTLTISSLQPEDFATYYCQQYNSYPLTFGGGTKVEIKR	574 nM
v28685 (antibody, human IgG1, kappa, L234A L235A, V domains shown, also called humanized 1G1 H1L3) VH: EVQLVESGGGLVQPGGSLRLSCAASGFTFSEFGMHWVRQAPGKGLEWVSYISSGGSTIYYADSVKGRFTISRDNAKNSLYLQMNSLRAEDTAVYYCARDWVDYWGQGTLVTVSS VL: EIVMTQSPATLSLSPGERVTLSCKASENVGSYVSWYQQKPGQAPRLLIYGASNRYTGVPARFSGSGSGTDFTLTISSVEPEDFAVYYCGQSYSYPLTFGGGTKLELKR	31.2 nM
